// data source = ChEMBL document CHEMBL1938377

# Study target: UniProtKB P03372
# Sequence (P03372 whole entry, the tested form may be a part): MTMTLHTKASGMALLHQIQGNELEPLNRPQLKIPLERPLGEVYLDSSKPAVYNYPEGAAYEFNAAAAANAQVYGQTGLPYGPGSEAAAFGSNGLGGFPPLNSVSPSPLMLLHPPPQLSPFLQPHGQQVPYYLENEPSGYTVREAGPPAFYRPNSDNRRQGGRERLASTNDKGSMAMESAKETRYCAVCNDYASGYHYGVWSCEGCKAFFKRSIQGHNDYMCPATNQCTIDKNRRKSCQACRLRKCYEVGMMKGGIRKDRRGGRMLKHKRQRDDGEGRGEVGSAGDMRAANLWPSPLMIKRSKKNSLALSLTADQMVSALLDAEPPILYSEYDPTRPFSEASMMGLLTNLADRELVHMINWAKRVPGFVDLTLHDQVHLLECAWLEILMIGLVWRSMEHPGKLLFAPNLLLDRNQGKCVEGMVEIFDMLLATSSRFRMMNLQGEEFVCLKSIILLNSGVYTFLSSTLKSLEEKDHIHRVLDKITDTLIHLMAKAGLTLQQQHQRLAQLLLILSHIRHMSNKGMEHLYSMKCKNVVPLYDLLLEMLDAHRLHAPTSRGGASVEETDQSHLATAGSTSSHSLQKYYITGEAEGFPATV
# Assay method text: Displacement of [3H]-estradiol from human […] LBD expressed in Escherichia coli at 1 uM to 1 pM relative to estradiol
Measured parameter: RBA
Give bare numbers.

{"Compound structure": "C[C@]12CC[C@@H]3c4ccc(O)cc4CC[C@H]3[C@@H]1CC[C@@]2(O)/C=C/c1ccsc1", "Measured parameter": "RBA", "Readout value": 2.9}
{"Compound structure": "C[C@]12CC[C@@H]3c4ccc(O)cc4CC[C@H]3[C@@H]1CC[C@@]2(O)/C=C/c1cccnc1", "Measured parameter": "RBA", "Readout value": 4}
{"Compound structure": "C[C@]12CC[C@@H]3c4ccc(O)cc4CC[C@H]3[C@@H]1CC[C@@]2(O)/C=C/c1ccccn1", "Measured parameter": "RBA", "Readout value": 1.5}

Read the next record carefully.
get_value(item= C[C@]12CC[C@@H]3c4ccc(O)cc4CC[C@H]3[C@@H]1CC[C@@]2(O)/C=C/c1ccccc1 , readout=RBA) returns 10.3
